Please go through the items and note down their TGI.
- System: SK-MEL-28 melanoma
- Experimental Details: NCI tumour cell line growth inhibition, 48 h

Worked set:
>  <Compound>
CSc1cccc(NC(=O)OC2CCCCCCCCCCC2)c1

>  <Measured Result>
> 100 µM

$$$$
>  <Compound>
Cc1cc2c(cc1Cl)SC(NNc1ccc([N+](=O)[O-])cc1)=NS2(=O)=O

>  <Measured Result>
> 10 µM

$$$$
>  <Compound>
C/C(=N\Nc1nc2ccccc2s1)c1cc(C)ncn1

>  <Measured Result>
> 55.8 µM

$$$$
>  <Compound>
O=C1OC(OCC#CCOC2OC(=O)C(Cl)=C2Cl)C(Cl)=C1Cl (stereo not drawn)

>  <Measured Result>
30.1 µM

$$$$
>  <Compound>
Cc1ccc(NC(=O)C(=O)Cc2cc[n+]([O-])cc2)cc1

>  <Measured Result>
> 100 µM

$$$$

For each listed entry, give its TGI.
1. O=C1NC2(CCN(CCCC3(c4ccc(F)cc4)OCCO3)CC2)Oc2ccccc21
2. CC#CC(O)(C(=O)OC1CC2CCC(C1)N2C)C1CCCC1 (stereo not drawn)

> 100 µM
> 100 µM

For each listed entry, give its TGI.
1. CN(C)CCN(C(=Nc1ccccc1)N1CCCC1)c1ccccc1
2. COc1ccc(-c2nn(-c3cccc(NC(=O)c4ccc(N5CCOCC5)c(C(F)(F)F)c4)c3)cc2-c2ccncc2)cc1Cl
3. CN(C)C(=S)/N=c1\ss/c(=N\S(=O)(=O)c2ccccc2)n1N(C)C
4. CC(=O)ON(C(C)=O)c1ccc(-c2nc3ccccc3s2)cc1C

["> 100 µM", "> 50 µM", "> 100 µM", "> 100 µM"]
